Data credit: ChEMBL document CHEMBL1177663

Experiment: Cytotoxicity against human MT4 cells after 4 days by MTT assay
Type: cell-based
Please provide measured CC50 at 96 h for the entries that follow.

- molecular.string: "Cc1cc(Oc2ccc3cc(C#N)ccc3c2)nc(Nc2ccc(C#N)cc2)n1"
  reported.measurement: "> 332 µM"
- molecular.string: "N#Cc1ccc(Nc2nccc(Oc3ccc4cc(C#N)ccc4c3Cl)n2)cc1"
  reported.measurement: "269 µM"
- molecular.string: "Cc1cnc(Nc2ccc(C#N)cc2)nc1Oc1ccc2cc(C#N)ccc2c1"
  reported.measurement: "> 332 µM"
- molecular.string: "O=C1Nc2ccc(Cl)cc2[C@@](C#CC2CC2)(C(F)(F)F)O1"
  reported.measurement: "> 63.4 µM"

Which value of CC50 at 96 h has been reported for COc1cc2cc(C#N)ccc2c(Cl)c1Oc1ccnc(Nc2ccc(C#N)cc2)n1 in the records?
> 191 µM

====

Target: Human immunodeficiency virus type 1 reverse transcriptase (Human immunodeficiency virus 1, UniProt Q72547)
measured.property: IC50 (µM)
Answers are plain numbers, in µM.

Answered cases to consult:
- molecular.string: "COc1c(Oc2ccnc(Nc3ccc(C#N)cc3)n2)ccc2cc(C#N)ccc12"
  IC50 / µM: 2.29
- molecular.string: "N#Cc1ccc(Nc2nccc(Oc3ccc4cc(C#N)ccc4c3Br)n2)cc1"
  IC50 / µM: 3.01

Could you tell me which IC50 is on file for COc1cc2cc(C#N)ccc2cc1Oc1ccnc(Nc2ccc(C#N)cc2)n1 ?
1.32

====

Test: Cytotoxicity against human MT4 cells after 4 days by MTT assay
Type: cell-based
Kindly supply the reported CC50 at 96 h values for the records listed here.

- compound: "Cc1ccnc2c1NC(=O)c1cccnc1N2C1CC1 [NEVIRAPINE]"
  CC50 at 96 h: "> 15 µM"

Record CC50 at 96 h per entry; entries follow.
1. COc1cc2cc(C#N)ccc2cc1Oc1ccnc(Nc2ccc(C#N)cc2)n1
2. N#Cc1ccc(Nc2nccc(Oc3ccc4cc(C#N)ccc4c3Br)n2)cc1

1: > 318 µM; 2: 283 µM

For every item below, please supply its CC50 at 96 h.
1. COc1c(Oc2ccnc(Nc3ccc(C#N)cc3)n2)ccc2cc(C#N)ccc12
2. N#Cc1ccc(Nc2nccc(Oc3ccc4cc(C#N)ccc4c3)n2)cc1
3. Cc1cnc(Nc2ccc(C#N)cc2)nc1Oc1ccc2cc(C#N)ccc2c1Br
4. Cc1cc(Oc2ccc3cc(C#N)ccc3c2Br)nc(Nc2ccc(C#N)cc2)n1

1. > 211 µM
2. > 68.8 µM
3. > 274 µM
4. > 274 µM
